# System Under Test: Mcl-1 protein (Homo sapiens, UniProt Q07820)
# Sequence (Q07820 whole entry): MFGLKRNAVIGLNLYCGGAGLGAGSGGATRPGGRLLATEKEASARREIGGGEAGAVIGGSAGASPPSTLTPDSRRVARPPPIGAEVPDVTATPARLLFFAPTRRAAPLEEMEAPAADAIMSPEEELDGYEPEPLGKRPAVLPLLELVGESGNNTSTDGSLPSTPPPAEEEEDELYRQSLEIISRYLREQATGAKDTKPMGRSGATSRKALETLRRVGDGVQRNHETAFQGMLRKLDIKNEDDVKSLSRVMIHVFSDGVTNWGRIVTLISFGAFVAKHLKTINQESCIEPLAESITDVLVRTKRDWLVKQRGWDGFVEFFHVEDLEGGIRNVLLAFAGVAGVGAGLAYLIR
# Test Protocol: Inhibition of Mcl-1 by the fluorescence polarisation technique
# Type: binding
# Condition Notes: @ 50 μM test compound; partial inhibitors
Readout Type: percentage fluorescence polarization inhibition

- Compound: "CCc1c(-c2cccc(Cl)c2C)c2c(NC(Cc3ccccc3)C(=O)O)ncnc2n1C (stereo not shown) [Example 20]"
  Measured Result: "64.8% @ 50 μM"
- Compound: "CCc1c(-c2cccc(Cl)c2C)c2c(NC(Cc3ccccc3)C(=O)O)ncnc2n1CC(F)(F)F (stereo not shown) [Example 28]"
  Measured Result: "63.25% @ 50 μM"
- Compound: "CCc1c(-c2cccc(Cl)c2C)c2c(NC(Cc3ccccc3)C(=O)O)ncnc2n1CC1CC1 (stereo not shown) [Example 22]"
  Measured Result: "74.2% @ 50 μM"
- Compound: "C=CCn1c(Br)c(-c2cccc(Cl)c2C)c2c(NC(Cc3ccccc3)C(=O)O)ncnc21 (stereo not shown) [Example 43]"
  Measured Result: "66.9% @ 50 μM"

* * *

# System Under Test: Mcl-1 protein (Homo sapiens, UniProt Q07820)
# Test Protocol: Inhibition of Mcl-1 by the fluorescence polarisation technique
# Type: binding
# Condition Notes: Method 1 (not underlined) or Method 2 (underlined); underlining not visible; first value where cell prints two; read-out: IC50 (M) Mcl-1 FP
# log10 of IC50 annotations
Readout Type: log10 of IC50 (log10 of the value in M)

- Molecule: "CCc1c(-c2cccc(Cl)c2C)c2c(NC(Cc3ccccc3)C(=O)O)ncnc2n1CCC1CCCC1 (single isomer, unassigned) [Example 30]"
  log10 of IC50: -5.19
- Molecule: "CC#CCn1c(CC)c(-c2cccc(Cl)c2C)c2c(NC(Cc3ccccc3)C(=O)O)ncnc21 (single isomer, unassigned) [Example 26]"
  log10 of IC50: -5.23
- Molecule: "O=C(O)[C@@H](Cc1ccccc1)Nc1ncnc2[nH]cc(-c3cccc4ccccc34)c12"
  log10 of IC50: -4.47
- Molecule: "COc1ccccc1-c1nccc(COc2ccccc2C[C@@H](Nc2ccnc3sc(-c4ccc(F)cc4)c(-c4ccc(OCCN5CCN(C)CC5)c(Cl)c4C)c23)C(=O)O)n1"
  log10 of IC50: -8.26
- Molecule: "COc1ccccc1-c1nccc(COc2ccccc2CC(Oc2cccc3sc(-c4ccc(F)cc4)c(-c4ccc(OCCN5CCN(C)CC5)c(Cl)c4C)c23)C(=O)O)n1 (single isomer, unassigned) [Example 52]"
  log10 of IC50: -5.80
- Molecule: "CCc1sc2cccc(CC(Cc3ccccc3)C(=O)O)c2c1-c1ccc(O)c(Cl)c1C (stereo not drawn)"
  log10 of IC50: -6.92

* * *

# IC50 annotations
# System Under Test: Mcl-1 protein (Homo sapiens, UniProt Q07820)
# Test Protocol: Inhibition of Mcl-1 by the fluorescence polarisation technique
# Type: binding
# Condition Notes: Method 1 (not underlined) or Method 2 (underlined); underlining not visible; first value where cell prints two; read-out: IC50 (M) Mcl-1 FP

- Compound: "CCc1c(-c2cccc(Cl)c2C)c2c(NC(Cc3ccccc3)C(=O)O)ncnc2n1Cc1ccc(OC)cc1 (single isomer, unassigned) [Example 35]"
  IC50: "2.9e-07 M"
- Compound: "CCc1sc2cccc(OC(Cc3ccccc3)C(=O)O)c2c1-c1ccc(OCCN2CCN(C)CC2)c(Cl)c1C (stereo not shown)"
  IC50: "3.6e-07 M"
- Compound: "CCc1c(-c2cccc3ccccc23)c2c(N[C@H](Cc3ccccc3)C(=O)O)ncnc2n1CCCc1ccccc1 (single isomer, unassigned) [Example 18]"
  IC50: "3.1e-06 M"
- Compound: "Cc1c(-c2c(-c3ccc(F)cc3)oc3ncnc(O[C@H](Cc4ccccc4OCc4ccnn4C(C)(C)C)C(=O)O)c23)ccc(OCCN(C)C)c1Cl"
  IC50: "8.9e-09 M"

The values you see were collected from patent US10323041B2.
